Tested on: MYLK2
Test Parameters: concentration: 1 μM, replicates: in singlicate; n = 1;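 also: KINOMEscan kinase panel screen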
Experimental Readout: %Inh (%)
The reply should be a number in %, with the unit left off.

Solved entries:
The compound CCCNC(=O)Nc1ccc(Oc2ncnc3ccn(C)c23)cc1 , when measured on MYLK2, yielded %Inh of 11

Log: MYLK2, compound C[C@@H]1CC[C@H](C(=O)NC2CCCCC2)CN1c1cc(-c2ccc3c(N)n[nH]c3c2)nc(N)n1 [GSK2291363] , %Inh = 11

COC(=O)c1c(-c2ccccc2)c2cc(C)ccc2c(=O)n1Cc1ccccc1 tested on MYLK2 gave %Inh: 0

***
Tested system MYLK2; %Inh recorded for COc1ccc(-c2cc3c(C)nc(N)nc3n([C@H]3CC[C@H](OCCO)CC3)c2=O)cn1 was 2

Summary line: COc1ccc(CNC(=O)NC2CCN(c3ccnc(Nc4ccc(F)cc4)n3)C2)cc1 (centres unmarked) [GSK1379706] , MYLK2, reported %Inh = 6

Item COc1ccc(-c2cc3c(C)nc(N)nc3n([C@H]3CC[C@H](O)CC3)c2=O)cn1 ; assay system MYLK2; %Inh reported as 4

# value of %Inh, MYLK2, item COc1cc(Nc2nccc(N3CCC(NC(=O)C4COc5ccccc5O4)C3)n2)cc(OC)c1OC (centres unmarked) [GSK1379761] = 6

Field %Inh (system: MYLK2) for entry COc1cccc(C2=C(N(C)c3ccccc3)C(=O)NC2=O)c1 [SB-334865] = 9

====

Tested on: RIOK3
Test Parameters: concentration: 1 μM, replicates: in singlicate; n = 1
Attribute: %Inh
Hey, just the number and the unit after it is fine.

Solved cases (3 shown):
%Inh value, target or system RIOK3, for Nc1n[nH]c2nnc(-c3ccccc3)c(-c3ccccc3)c12 [GW554060] : 0%

%Inh on RIOK3 for CCC(=O)c1c(-c2ccccc2)c2cc(Cl)ccc2c(=O)n1Cc1cc(S(C)(=O)=O)n(CC(F)F)n1 is 25%

Here Nc1ncnc2c1ncn2-c1cccc(F)c1 [SKF-97560] was tested on RIOK3, and its %Inh came to 49%

Further cases:
Sample COC(=O)c1c(-c2ccccc2)c2cc(Br)ccc2c(=O)n1Cc1ccc(NC(=O)CCC(=O)O)cc1 , system: RIOK3. Its %Inh is 0%

Form: item COC(=O)c1c(-c2ccccc2)c2cc(C)ccc2c(=O)n1Cc1ccccc1 ; test system RIOK3; %Inh: 0%

Assay RIOK3, sample CCC(=O)c1c(-c2ccccc2)c2cc(Cl)ccc2c(=O)n1Cc1cc(S(C)(=O)=O)n(CC(N)=O)n1 , %Inh read: 0%

====

System: TIE1
Test Parameters: concentration: 1 μM, replicates: in singlicate; n = 1
Reported values of %Inh for individual entries
Use % as the unit, but write only the number.

Past entries and their recorded results:
# compound CCCC(=O)Nc1n[nH]c2ncc(-c3cccc4ccccc34)cc12 [SB-642057] ; its %Inh = 0

Value of %Inh reported for the compound COc1cc(Nc2nccc(N3CCC(NC(=O)C4COc5ccccc5O4)C3)n2)cc(OC)c1OC (centres unmarked) [GSK1379761] is 17

Value of %Inh reported for the compound CC(C)(C)c1ccc(C(=O)Nc2cn3cc(-c4ccccc4)ccc3n2)cc1 is 0

The compound CCS(=O)c1ccc(-c2coc3ccc(-c4nnc(C)o4)cc23)cc1 (centres unmarked) showed %Inh equal to 0

Reported %Inh ( Cc1c(Cn2c(C)nn3c(=O)cc(N4CCO[C@H](C)C4)nc23)cccc1C(F)(F)F [GSK2373690] ) = 10

---
Lab note: measured %Inh of O=C(Nc1ccc2c(c1)OCO2)NC1CCN(c2ccnc(NCc3ccc(F)cc3)n2)CC1 [GSK1379859] was 0

compound CCC(=O)c1c(-c2ccccc2)c2cc(Cl)ccc2c(=O)n1Cc1cc(C(=O)NC2CC2)n(C)n1 , %Inh observed: 6
